- Experiment summary: Liver microsomal stability (extraction ratio)
- Type: in vitro ADME
- Run conditions: test compound 1 μM, 0.5 mg/mL liver microsomes, NADPH, 37° C.; species not stated (method: mouse, rat, and human)
Observed property: Extraction Ratio @ 1 μM

(Q) Provide one value: measured Extraction Ratio @ 1 μM of CN(C)C(=O)Cn1ncc2ncc(-c3ccc(Cl)c(C(F)F)c3)nc21 [Example 12]
(A) 0.54

(Q) Provide one value: measured Extraction Ratio @ 1 μM of O=C(Cn1nc(F)c2ncc(-c3ccc(F)c(C(F)F)c3)nc21)N1CCC1 [Example 25]
(A) 0.41

(Q) Provide one value: measured Extraction Ratio @ 1 μM of CN(C)C(=O)Cn1ncc2ncc(-c3ccc(F)c(C(F)F)c3)nc21 [Example 10]
(A) 0.41

(Q) Provide one value: measured Extraction Ratio @ 1 μM of O=C(Cn1ncc2ncc(-c3ccc(F)c(OC(F)F)c3)nc21)N1CC(F)C1 [Example 37]
(A) 0.46

(Q) Provide one value: measured Extraction Ratio @ 1 μM of O=C(Cn1ncc2ncc(-c3ccc(F)c(OC(F)F)c3)nc21)N1CCC1 [Example 28]
(A) 0.45
